Cited source for all entries: ChEMBL document CHEMBL3091303

Biological target: UniProt:P0DMS8
Sequence (P0DMS8 whole entry): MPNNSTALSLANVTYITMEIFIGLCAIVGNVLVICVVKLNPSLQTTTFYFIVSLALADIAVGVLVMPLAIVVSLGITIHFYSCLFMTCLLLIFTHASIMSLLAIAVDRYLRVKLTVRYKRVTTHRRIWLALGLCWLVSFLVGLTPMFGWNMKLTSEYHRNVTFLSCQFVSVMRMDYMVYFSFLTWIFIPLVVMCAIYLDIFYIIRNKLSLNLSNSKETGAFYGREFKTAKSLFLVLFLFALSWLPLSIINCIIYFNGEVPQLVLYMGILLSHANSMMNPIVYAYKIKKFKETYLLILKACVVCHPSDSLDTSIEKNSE
Assay: Displacement of [3H]PSB-11 from human adenosine A3 receptor expressed in CHO cells
Type: cell-based
pKi: −log10 of the molar value.
Quantity Measured: pKi

INSERT INTO results (smiles_text, quantity_measured, observed_measurement) VALUES
  ('Cn1c(=O)c2c(nc3n2CCCN3c2ccc(F)cc2)n(C)c1=O', 'pKi', 4.88),
  ('Cn1c(=O)c2c(nc3n2CCCN3c2ccc(Cl)c(Cl)c2)n(C)c1=O', 'pKi', '< 6.00'),
  ('Cn1c(=O)c2c(nc3n2CCCN3CCc2cccc(Cl)c2)n(C)c1=O', 'pKi', '< 5.00'),
  ('C#CCn1c(=O)c2c(nc3n2CCCN3C2CCC2)n(C)c1=O', 'pKi', '< 5.00'),
  ('CCn1c(=O)c2c(nc3n2CCCN3CCc2ccccc2OC)n(CC)c1=O', 'pKi', 5.52),
  ('Cn1c(=O)c2c(nc3n2CCCN3Cc2ccc(Cl)c(Cl)c2)n(C)c1=O', 'pKi', '< 5.00'),
  ('C#CCn1c(=O)c2c(nc3n2CCCN3c2cccc(Br)c2)n(C)c1=O', 'pKi', '< 5.00'),
  ('CCCn1c(=O)c2c(nc3n2CCCN3CCC(=O)N2CCN(c3ccccc3)CC2)n(CCC)c1=O', 'pKi', '< 6.00'),
  ('CCn1c(=O)c2c(nc3n2CCCN3CCN2CCCCC2)n(CC)c1=O', 'pKi', '< 6.00'),
  ('CCCn1c(=O)c2c(nc3n2CCCN3CC(=O)N2CCN(Cc3ccc(OC)cc3)CC2)n(CCC)c1=O', 'pKi', 5.80),
  ('Cn1c(=O)c2c(nc3n2CCCN3c2cc(Cl)cc(Cl)c2)n(C)c1=O', 'pKi', '< 5.00'),
  ('Cn1c(=O)c2c(nc3n2CCCN3c2cccc(Cl)c2)n(C)c1=O', 'pKi', '< 5.00'),
  ('CCCn1c(=O)c2c(nc3n2CCCN3CCC(=O)N2CCN(Cc3ccc(Cl)cc3)CC2)n(CCC)c1=O', 'pKi', '< 6.00'),
  ('C#CCn1c(=O)c2c(nc3n2CCCN3CCc2ccc(OC)cc2)n(C)c1=O', 'pKi', '< 6.00'),
  ('COc1ccc(CN2CCN(C(=O)CN3CCCn4c3nc3c4c(=O)n(C)c(=O)n3C)CC2)cc1', 'pKi', '< 5.00'),
  ('CCCn1c(=O)c2c(nc3n2CCCN3CC(=O)N2CCN(c3ccccc3)CC2)n(CCC)c1=O', 'pKi', 5.61),
  ('C#CCn1c(=O)c2c(nc3n2CCCN3Cc2ccccc2)n(C)c1=O', 'pKi', '< 5.00'),
  ('C#CCn1c(=O)c2c(nc3n2CCCN3Cc2cccnc2)n(C)c1=O', 'pKi', '< 6.00'),
  ('Cn1c(=O)c2c(nc3n2CCCN3c2ccc(Cl)cc2)n(C)c1=O', 'pKi', '< 5.00'),
  ('CCn1c(=O)c2c(nc3n2CCCN3c2ccc(O)cc2)n(CC)c1=O', 'pKi', '< 5.00'),
  ('CCn1c(=O)c2c(nc3n2CCCN3CCc2cc(OC)c(OC)c(OC)c2)n(CC)c1=O', 'pKi', '< 5.00');

====

Target: Adenosine receptor A2a (Rattus norvegicus) (UniProt P30543)
Sequence (P30543 whole entry): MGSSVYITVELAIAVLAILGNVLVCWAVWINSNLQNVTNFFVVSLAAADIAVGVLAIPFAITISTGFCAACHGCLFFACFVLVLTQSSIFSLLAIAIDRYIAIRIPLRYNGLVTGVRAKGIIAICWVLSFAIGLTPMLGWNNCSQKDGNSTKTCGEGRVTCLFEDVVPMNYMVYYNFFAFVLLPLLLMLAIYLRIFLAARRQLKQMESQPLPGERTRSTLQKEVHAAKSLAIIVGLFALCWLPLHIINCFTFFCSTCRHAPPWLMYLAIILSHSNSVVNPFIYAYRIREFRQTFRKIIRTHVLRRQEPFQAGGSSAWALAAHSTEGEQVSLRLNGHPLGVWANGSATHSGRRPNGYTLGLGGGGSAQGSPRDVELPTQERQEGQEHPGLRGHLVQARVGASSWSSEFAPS
Test: Displacement of [3H]MSX-2 from adenosine A2A receptor in rat brain striatum relative to control
Assay type: tissue-based
Parameters: concentration or dose not given beside the values
Conditions: concentration not given here
Quantity Measured: inhibition (%)

INSERT INTO assay_data (smiles_text, assay_target, quantity_measured, observed_measurement) VALUES
  ('Cn1c(=O)c2c(nc3n2CCCN3CC(=O)N2CCN(c3ccc(Cl)cc3)CC2)n(C)c1=O', 'Adenosine receptor A2a (Rattus norvegicus) (UniProt P30543)', 'inhibition', 39),
  ('CCCn1c(=O)c2c(nc3n2CCCN3CC(=O)N2CCN(c3ccccc3)CC2)n(CCC)c1=O', 'Adenosine receptor A2a (Rattus norvegicus) (UniProt P30543)', 'inhibition', 27),
  ('COc1ccc(CN2CCN(C(=O)CN3CCCn4c3nc3c4c(=O)n(C)c(=O)n3C)CC2)cc1', 'Adenosine receptor A2a (Rattus norvegicus) (UniProt P30543)', 'inhibition', 41),
  ('CCCn1c(=O)c2c(nc3n2CCCN3CC(=O)N2CCN(Cc3ccc(OC)cc3)CC2)n(CCC)c1=O', 'Adenosine receptor A2a (Rattus norvegicus) (UniProt P30543)', 'inhibition', 33),
  ('Cn1c(=O)c2c(nc3n2CCCN3CC(=O)N2CCN(c3ccccc3)CC2)n(C)c1=O', 'Adenosine receptor A2a (Rattus norvegicus) (UniProt P30543)', 'inhibition', 40),
  ('CCCn1c(=O)c2c(nc3n2CCCN3CCC(=O)N2CCN(Cc3ccc(Cl)cc3)CC2)n(CCC)c1=O', 'Adenosine receptor A2a (Rattus norvegicus) (UniProt P30543)', 'inhibition', 40),
  ('CCCn1c(=O)c2c(nc3n2CCCN3CCC(=O)N2CCN(c3ccccc3)CC2)n(CCC)c1=O', 'Adenosine receptor A2a (Rattus norvegicus) (UniProt P30543)', 'inhibition', 14),
  ('Cn1c(=O)c2c(nc3n2CCCN3CC(=O)N2CCN(Cc3ccc(C(F)(F)F)cc3)CC2)n(C)c1=O', 'Adenosine receptor A2a (Rattus norvegicus) (UniProt P30543)', 'inhibition', 27),
  ('CCn1c(=O)c2c(nc3n2CCCN3CCN2CCCCC2)n(CC)c1=O', 'Adenosine receptor A2a (Rattus norvegicus) (UniProt P30543)', 'inhibition', 44),
  ('CCCn1c(=O)c2c(nc3n2CCCN3CC(=O)N2CCN(c3ccc(Cl)cc3)CC2)n(CCC)c1=O', 'Adenosine receptor A2a (Rattus norvegicus) (UniProt P30543)', 'inhibition', 36);

====

Target: Adenosine receptor A2a (Rattus norvegicus)
Sequence (P30543 whole entry): as above
Test: Displacement of [3H]MSX-2 from adenosine A2A receptor in rat brain striatum
Format: tissue-based
Recorded Ki determines the label; the label ranges are one (below 800 nM), two (800 nM to below 4000 nM), three (4000 nM or more)

INSERT INTO results (smiles_text, classification) VALUES
  ('CCCn1c(=O)c2c(nc3n2CCCN3CC(=O)N2CCN(Cc3ccc(OC)cc3)CC2)n(CCC)c1=O', 'three'),
  ('Cn1c(=O)c2c(nc3n2CCCN3CC(=O)N2CCN(Cc3ccccc3)CC2)n(C)c1=O', 'three'),
  ('Cn1c(=O)c2c(nc3n2CCCN3c2ccc(Cl)c(Cl)c2)n(C)c1=O', 'three'),
  ('CCCn1c(=O)c2c(nc3n2CCCN3CC(=O)N2CCN(c3ccc(Cl)cc3)CC2)n(CCC)c1=O', 'three'),
  ('CCCn1c(=O)c2c(nc3n2CCCN3CC(=O)N2CCN(Cc3ccc(C(F)(F)F)cc3)CC2)n(CCC)c1=O', 'three'),
  ('Cn1c(=O)c2c(nc3n2CCCN3CC(=O)N2CCN(c3ccccc3)CC2)n(C)c1=O', 'three'),
  ('COc1ccc(CN2CCN(C(=O)CN3CCCn4c3nc3c4c(=O)n(C)c(=O)n3C)CC2)cc1', 'three'),
  ('Cn1c(=O)c2c(nc3n2CCCN3CCc2ccc(Cl)cc2)n(C)c1=O', 'one'),
  ('CCn1c(=O)c2c(nc3n2CCCN3c2ccc(O)cc2)n(CC)c1=O', 'three'),
  ('CCCn1c(=O)c2c(nc3n2CCCN3CCC(=O)N2CCN(Cc3ccc(Cl)cc3)CC2)n(CCC)c1=O', 'three'),
  ('C#CCn1c(=O)c2c(nc3n2CCCN3c2cccc(Br)c2)n(C)c1=O', 'two'),
  ('C#CCn1c(=O)c2c(nc3n2CCCN3C2CCN(Cc3ccccc3)CC2)n(C)c1=O', 'two'),
  ('CCn1c(=O)c2c(nc3n2CCCN3c2cccc(OC)c2)n(CC)c1=O', 'three'),
  ('CCn1c(=O)c2c(nc3n2CCCN3C2CCCCC2)n(CC)c1=O', 'two'),
  ('Cn1c(=O)c2c(nc3n2CCCN3CCc2cccc(Cl)c2)n(C)c1=O', 'one'),
  ('C#CCn1c(=O)c2c(nc3n2CCCN3c2cc(OC)cc(OC)c2)n(C)c1=O', 'two'),
  ('C#CCn1c(=O)c2c(nc3n2CCCN3CCc2ccc(O)cc2)n(C)c1=O', 'one'),
  ('C#CCn1c(=O)c2c(nc3n2CCCN3CCc2ccc(OC)cc2)n(C)c1=O', 'one'),
  ('C#CCn1c(=O)c2c(nc3n2CCCN3C2CCCCC2)n(C)c1=O', 'one'),
  ('C#CCn1c(=O)c2c(nc3n2CCCN3c2cccc(OC)c2)n(C)c1=O', 'two'),
  ('Cn1c(=O)c2c(nc3n2CCCN3CC(=O)N2CCN(Cc3ccc(Cl)cc3)CC2)n(C)c1=O', 'three'),
  ('C#CCn1c(=O)c2c(nc3n2CCCN3Cc2cccnc2)n(C)c1=O', 'three'),
  ('CCn1c(=O)c2c(nc3n2CCCN3CCN2CCCCC2)n(CC)c1=O', 'three'),
  ('C#CCn1c(=O)c2c(nc3n2CCCN3Cc2ccc(OC)cc2)n(C)c1=O', 'two'),
  ('C#CCn1c(=O)c2c(nc3n2CCCN3c2ccc(C(C)C)cc2)n(C)c1=O', 'two'),
  ('Cn1c(=O)c2c(nc3n2CCCN3Cc2ccc(Cl)c(Cl)c2)n(C)c1=O', 'two'),
  ('C#CCn1c(=O)c2c(nc3n2CCCN3Cc2cccc(OC)c2)n(C)c1=O', 'one'),
  ('CCn1c(=O)c2c(nc3n2CCCN3c2ccc(F)cc2)n(CC)c1=O', 'two');
